# System: stomach motility
# assay-procedure: Determination of effect on stomach motility in anaesthetised rats
# Assay type: in vivo, rats of the SIV 50 strain
# applied-conditions: ip; rat, 100 μmole/kg i.p.; read-out: Maximum Amplitude Increase (increase in % of control amplitude)
# Experimental: 2. Determination of effect on stomach motility in anaesthetised rats. For the tests, groups of 5-6 fasting rats of the SIV 50 strain having a body weight of 220-290 g were used in each test which had been anaesthetised with a ketamine/xylazine mixture. […] The geometric mean values of the amplitudes during the first 20 min were determined for the individual animals and used as control amplitude values. […]
One threshold, 500%, splits the recorded change in vivo at 100 µmol/kg values: lower ones are satisfied, equal or higher ones are not satisfied.

1) O=C1NCC(CN2CCCC2)c2c[nH]c3cccc1c23 (centres unmarked) : not satisfied
2) NCC1CNC(=O)c2cccc3c2c1cn3CCCc1ccccc1 (centres unmarked) : satisfied
3) CN1CCN(CC2Cc3c[nH]c4cccc(c34)C(=O)N2)CC1 (centres unmarked) : satisfied
4) COc1ccc(CCNCC2CNC(=O)c3cccc4[nH]cc2c34)cc1OC (centres unmarked) : not satisfied
5) O=C1NCC(CNCc2ccccc2)c2c[nH]c3cccc1c23 (centres unmarked) : satisfied
6) CNCC1CNC(=O)c2cccc3[nH]cc1c23 (racemic) : not satisfied
7) CCCNCC1CNC(=O)c2cccc3[nH]cc1c23 (centres unmarked) : not satisfied
8) O=C1NC(CN2CCN(c3ccccc3)CC2)Cc2c[nH]c3cccc1c23 (centres unmarked) : satisfied

---

Some compounds, each annotated with its measured Gastric Tone Increase.
# Tested on: stomach motility
# assay-procedure: Determination of effect on stomach motility in anaesthetised rats
# Assay type: in vivo, rats of the SIV 50 strain
# applied-conditions: rat, 100 μmole/kg i.p.
measurement-kind: Gastric Tone Increase (cm H2O)

1) CN(C)CC1CNC(=O)c2cccc3[nH]cc1c23 (centres unmarked) : 1.8
2) O=C1NCC(CNCC2CC2)c2c[nH]c3cccc1c23 (centres unmarked) : 6.7
3) CCNCC1CNC(=O)c2cccc3[nH]cc1c23 (centres unmarked) : 9.5
4) O=C1NCC(CN2CCCCC2)c2c[nH]c3cccc1c23 (centres unmarked) : 3.0
5) NCC1CNC(=O)c2cccc3c2c1cn3Cc1ccccc1 (centres unmarked) : 10.5

---

# Test system: stomach motility
# assay-procedure: Determination of effect on stomach motility in anaesthetised rats
# Type: in vivo, rats of the SIV 50 strain
# applied-conditions: ip; rat, 100 μmole/kg i.p.; read-out: Maximum Amplitude Increase (increase in % of control amplitude)
Each record here notes measured change in vivo at 100 µmol/kg.
measurement-kind: change in vivo at 100 µmol/kg (%)

1) CC(C)n1cc2c3c(cccc31)C(=O)NCC2CN (stereo not shown) : 467
2) CN(C)C=NCC1CNC(=O)c2cccc3[nH]cc1c23 (stereo not shown) : 308
3) Cc1ccc(CNCC2CNC(=O)c3cccc4[nH]cc2c34)cc1 (stereo not shown) : 195
4) NCC1CNC(=O)c2cccc3c2c1cn3Cc1ccccc1 (stereo not shown) : 663
5) CCN(CC)CC1CNC(=O)c2cccc3[nH]cc1c23 (stereo not shown) : 449
6) O=C1NC(CNC2CC2)Cc2c[nH]c3cccc1c23 (stereo not shown) : 580
7) CC(C)NCC1CNC(=O)c2cccc3[nH]cc1c23 (stereo not shown) : 609
8) O=C1NC(CN2CCOCC2)Cc2c[nH]c3cccc1c23 (stereo not shown) : 154
9) CCCCNCC1CNC(=O)c2cccc3[nH]cc1c23 (stereo not shown) : 234
10) CC(C)(C)NCC1Cc2c[nH]c3cccc(c23)C(=O)N1 (stereo not shown) : 928

Data origin, for the record: patent US5272143A
